# assayed-target: shed MICA008 polypeptide (human) (UniProt Q29983)
# experimental-protocol: capture ELISA (anti-hFc / antibody / shed antigen / biotin-6D4)
property: Max OD450
// return just the number, without any unit appended

Task: Could you please provide reported Max OD450 for #36 (antibody, V domains shown) VH: QVQLQQSGPELVKPGASVKVSCKASGYAFTKYNIYWVKQSHGKSLEWIGYIDPYNGGTVYNQKFKGKATLTVDKSSSTAYMHLNSLTSEDSAVYYCATTDGYSLFTYWGQGTLVTVSA VL: DIQMTQTTSSLSASLGDRVTISCRASQDISNYLNWYQQKPDGTVKLLIYYTSRLHSGVPSRFSGSGSGTDYSLTISNLEQEDIATYFCQQGNTLPFTFGSGTKLEIK ? Thanks!
Output: 0.16

Now take the following binder into account.
Task: Let me know recorded Max OD450 for 6E1.1.12 (antibody, human IgG1, kappa, V domains shown) VH: QGQMQQSGAELVKPGASVKLSCKTSGFTFSDNYISWLKQKPGQSLEWIAWIYAGTGGSSYNQKFRDKAQLTVDTSSRTAYMQLSSLTTEDSAIYYCARHDYYGTSGAWFAYWGRGTLVTVSA VL: DVLMTQTPLSLPVSLGDQASISCRSSQHIVHSNENTYLEWYLQKPGQSPKLLIYKVSNRFSGVPDRFSGSGSGTDFTLKISRVEAEDLGVYYCFQGSHVPWTFGGGTKVEIKR , thanks.
Output: 0.15
